Experiment: FRG1 expression reporter modulators in myotubes – cell-based, C2C12 myotubes, firefly/Renilla luciferase, luminescence, FRG1 inhibition for FSHD, primary screen (AID 1084)
Details: FRG1 promoter luciferase, higher = more signal, called active from +8 up or from −8 down
The source made the active and inactive calls.
Endpoint Name: z-score

# Compound, Observed Result
rows = [
    ("CCCCCCCCCCC(O)C1C=CC2C(=O)N(c3ccccc3)C(=O)C2N1Nc1ccc([N+](=O)[O-])cc1 (stereo not drawn)", "1.39 (inactive)"),
    ("CCCNC(=O)[C@@]1(C)c2ccccc2C(=O)N(Cc2ccc(OC(F)(F)F)cc2)[C@H]1c1ccc(CO)cc1", "-3.98 (inactive)"),
    ("Cc1ccc(N2C(=O)c3ccccc3[C@](C)(C(=O)NCCN3CCOCC3)[C@@H]2c2ccc(CO)cc2)nc1", "0.517 (inactive)"),
    ("COC(=O)[C@@]1(Cc2ccccc2)[C@H]2c3cc(C(=O)N(C)C)n(Cc4ccccc4)c3C[C@H]2CN1C(=O)c1ccccc1", "0.273 (inactive)"),
    ("O=C1C2C=CC(C(O)c3ccccn3)N(Nc3ccccc3F)C2C(=O)N1c1ccccc1 (stereo not drawn)", "1.9 (inactive)"),
    ("Cc1ccc(S[C@]2(C(=O)NCC(C)C)CC(=O)N(Cc3ccccc3)[C@@H]2c2ccc(CO)cc2)cc1", "-3.05 (inactive)"),
    ("C=C(C(=O)CC[C@H](OC(=O)c1cccnc1)c1ccccc1OCCO)C(C)C", "0.276 (inactive)"),
    ("COCCOC(=O)N1C(=O)[C@@]2(c3cc(C#CC4=CCCCC4)ccc31)[C@H](c1ccc(OCCO)cc1)N1[C@H](c3ccccc3)[C@H](c3ccccc3)OC(=O)[C@H]1[C@@H]2C(=O)Nc1nc2ccccc2s1", "1.89 (inactive)"),
    ("CCCNC(=O)[C@@]1(C)c2ccccc2C(=O)N(Cc2cc(F)cc(C(F)(F)F)c2)[C@H]1c1ccc(CO)cc1", "-0.92 (inactive)"),
    ("CC(C)OC(=O)C1=CCC(c2cccc(Cl)c2)O1 (stereo not drawn)", "-0.716 (inactive)"),
    ("COc1ccc([Si](C)(C)[C@H]2[C@H](CCO)O[C@@]3(C(=O)N(Cc4cccc(N5C(=O)c6cccc7cccc5c67)c4)c4ccccc43)[C@@H]2C)cc1", "-1.43 (inactive)"),
    ("C=CCC(OC(C)=O)[C@@H]1[C@@H](N(Cc2cc3ccccc3o2)C(=O)c2ccc(-c3ccccc3)cc2)c2cc(OCCCO)ccc2N1C(=O)Cc1ccc2ccccc2c1 (stereo partly drawn)", "-1.28 (inactive)"),
    ("CN(C)CCCC[C@@H]1NC(=O)[C@@H]2C[C@H](C(=O)NCCCCCN)[C@H](c3ccc(O)cc3)N2C1=O", "-0.926 (inactive)"),
    ("CC(C)N1C(=O)c2ccccc2[C@](C)(C(=O)NCCCN(C)C)[C@@H]1c1ccc(CO)cc1", "1.47 (inactive)"),
    ("[N-]=[N+]=Nc1ccccc1C[C@]1(C(=O)N2CCCCC2)N=C(c2ccc(OCCCO)cc2)O[C@H]1c1ccccc1N=[N+]=[N-]", "-1.68 (inactive)"),
    ("COC(=O)[C@@]1(Cc2ccc(OC)cc2)[C@H]2c3cc(C(=O)N(C)C)n(CCSCCO)c3C[C@H]2CN1C(=O)c1ccccc1", "-1.35 (inactive)"),
    ("NC(=O)NCC#Cc1ccc2c(c1)[C@]1(C(=O)N2)[C@H](c2ccccc2OCCO)N2[C@H](c3ccccc3)[C@H](c3ccccc3)OC(=O)[C@H]2[C@@H]1C(=O)N1CCCCCCC1", "-1.7 (inactive)"),
    ("Cc1cc(C)c(C(O)C2C=CC3C(=O)NC(=O)C3N2Nc2ccccn2)c(C)c1 (stereo not drawn)", "1.03 (inactive)"),
    ("O=C(NCCN1CCOCC1)[C@@H]1c2ccccc2C(=O)N(Cc2cc(F)cc(C(F)(F)F)c2)[C@H]1c1ccc(CO)cc1", "-0.0497 (inactive)"),
    ("COCC1=C([C@H](O)CCc2ccccc2)[C@H](CO)[C@@H]2C(=O)N(Cc3ccccc3)C(=O)[C@@H]2C1", "-0.4 (inactive)"),
    ("COc1ccc(C#Cc2ccc3c(c2)[C@]2(C(=O)N3)[C@H](c3ccc(OCCO)cc3)N3[C@H](c4ccccc4)[C@H](c4ccccc4)OC(=O)[C@H]3[C@@H]2C(=O)Nc2nc3ccccc3s2)cc1", "3.55 (inactive)"),
    ("CC(=O)n1cc(C(O)C2C=CC3C(=O)N(c4ccccc4)C(=O)C3N2Nc2ccc(C#N)cc2)c2ccccc21 (stereo not drawn)", "0.471 (inactive)"),
    ("C=CCN1C(=O)[C@@]2(O[C@@H](CCO)[C@H]([Si](C)(C)c3ccc(OC)cc3)[C@H]2C)c2cc(N3C(=O)COc4ccccc43)ccc21", "-1.54 (inactive)"),
    ("[N-]=[N+]=NCc1ccccc1[C@H]1OC(c2ccc(OCCCO)cc2)=N[C@@]1(Cc1ccccc1)C(=O)O", "1.82 (inactive)"),
    ("COc1ccc([Si](C)(C)[C@H]2[C@H](CC(=O)N3CCC[C@H]3CO)O[C@@]3(C(=O)N(c4ccccc4)c4ccccc43)[C@@H]2C)cc1", "-1.74 (inactive)"),
    ("O[C@@H](Cc1ccccc1)[C@@H](/C=C/c1ccccc1)NCc1ccccc1Br", "-0.926 (inactive)"),
    ("C=CCNC(=O)[C@H]1[C@@H]2C(=O)O[C@@H](c3ccccc3)[C@@H](c3ccccc3)N2[C@@H](c2ccc(O)cc2)[C@]12C(=O)Nc1ccc(C#Cc3ccc(OC)cc3)cc12", "0.0523 (inactive)"),
    ("COCCOC(=O)N1C(=O)[C@@]2(c3cc(C#Cc4ccc(OC)cc4)ccc31)[C@H](C(N)=O)[C@H]1C(=O)O[C@H](c3ccccc3)[C@H](c3ccccc3)N1[C@@H]2c1ccc(O)cc1", "0.961 (inactive)"),
]
